Data origin, for the record: patent US20230383269A1

Target: the molecule itself
Assay: Blue-Native-PAGE, oligomeric conformation (self-association of identical chains)
Protocol: Comparison of the native molecular weight (oligomeric conformation) between single purified zearalenone-cleaving polypeptides was done via Blue-Native-PAGE. […] The oligomeric state of selected zearalenone-cleaving polypeptides was determined by size exclusion chromatography, SEC-MALS or X-Ray crystallography. […] The oligomeric conformation of the zearalenone-cleaving polypeptides was determined relatively to the migration of homo-dimeric and homo-tetrameric peptides.
MEASURED PROPERTY: binding result

alpha/beta hydrolase variant of SEQ ID NO: 7 (N167L) (enzyme, homo-tetramer; also called zearalenone-cleaving polypeptide) MTDQSPETRDIFVPHAFEEQQVDLGEVVMNYVEAGSADHPALLLLPEQTGSWWSYEPVIGLLAESFHVFAVDIRGQGRSTWTPKRYSLDNFGNDLVRFISLVVKRPVIVSGNSSGGVLAAWLSAYAMPGQIRAALCEDTPFFASELVPAHGHSVRQAAGPAFELYRLFLGDQWSVADWDGFAAAAKASPSKIMSLFPSSDEPPQNLKEYDPEWARAFFEGTVALHCPHDLMLSQVKTPILITHHARAVDPHSGDLLGALSDFQAERAQAIIESAGVPVEYASFPDALHMMHQFEPERFAEVLTSWVARLPADTPGAHHHHHH : binds
alpha/beta hydrolase variant of SEQ ID NO: 14 (N167T, F168Y, S174C) (enzyme, homo-tetramer; also called zearalenone-cleaving polypeptide) MTDQSPETRDIFVPHAFEEQQVDLGEVVMNYVEAGSADHPALLLLPEQTGSWWSYEPVIGLLAESFHVFAVDIRGQGRSTWTPKRYSLDNFGNDLVRFISLVVKRPVIVSGNSSGGVLAAWLSAYAMPGQIRAALCEDTPFFASELVPAHGHSVRQAAGPAFELYRTYLGDQWCVADWDGFAAAAKASPSKIMSLFPSSDEPPQNLKEYDPEWARAFFEGTVALHCPHDLMLSQVKTPILITHHARAVDPHSGDLLGALSDFQAERAQAIIESAGVPVEYASFPDALHMMHQFEPERFAEVLTSWVARLPADTPGAHHHHHH : binds
